The reported numbers originate from patent US20060204492A1.

tested on: T1, integrin αvβ3, purified from human placenta (human, UniProt P06756 31-1048; P05106 27-788)
T1 construct: mature; Native heterodimer, immobilized on ELISA plates or on the BIAcore chip; biotinylated in capture lift and capture ELISA screens; also called αvβ3 receptor; vitronectin receptor
T1 sequence (P06756 31-1048, form in doubt, chain 1 of 2): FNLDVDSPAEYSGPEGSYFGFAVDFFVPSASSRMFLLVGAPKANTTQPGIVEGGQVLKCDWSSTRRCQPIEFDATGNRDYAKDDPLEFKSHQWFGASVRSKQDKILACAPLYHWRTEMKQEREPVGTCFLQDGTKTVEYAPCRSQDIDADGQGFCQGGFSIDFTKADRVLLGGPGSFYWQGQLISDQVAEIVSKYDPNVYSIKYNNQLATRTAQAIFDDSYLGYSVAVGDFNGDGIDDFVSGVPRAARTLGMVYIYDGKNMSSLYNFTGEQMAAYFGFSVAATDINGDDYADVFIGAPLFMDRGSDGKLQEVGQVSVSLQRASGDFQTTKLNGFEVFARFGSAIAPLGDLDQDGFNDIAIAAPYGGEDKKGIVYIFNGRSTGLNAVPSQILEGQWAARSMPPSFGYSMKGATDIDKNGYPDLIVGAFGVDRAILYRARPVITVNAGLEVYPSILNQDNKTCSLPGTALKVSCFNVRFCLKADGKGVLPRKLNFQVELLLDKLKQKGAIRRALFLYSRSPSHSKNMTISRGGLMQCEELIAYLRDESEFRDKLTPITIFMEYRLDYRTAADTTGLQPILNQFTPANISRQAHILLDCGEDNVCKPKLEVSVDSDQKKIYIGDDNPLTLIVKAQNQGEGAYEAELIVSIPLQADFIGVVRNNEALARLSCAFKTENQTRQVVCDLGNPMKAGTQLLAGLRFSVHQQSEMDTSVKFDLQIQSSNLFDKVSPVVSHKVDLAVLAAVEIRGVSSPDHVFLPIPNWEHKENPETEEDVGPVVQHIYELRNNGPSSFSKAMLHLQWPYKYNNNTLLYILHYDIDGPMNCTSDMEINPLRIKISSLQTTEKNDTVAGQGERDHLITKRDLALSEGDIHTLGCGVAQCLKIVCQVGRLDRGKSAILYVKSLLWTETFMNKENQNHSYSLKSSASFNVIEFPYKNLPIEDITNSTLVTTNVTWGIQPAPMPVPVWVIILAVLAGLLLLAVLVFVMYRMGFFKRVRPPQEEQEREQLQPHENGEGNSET
T1 sequence (P05106 27-788, form in doubt, chain 2 of 2): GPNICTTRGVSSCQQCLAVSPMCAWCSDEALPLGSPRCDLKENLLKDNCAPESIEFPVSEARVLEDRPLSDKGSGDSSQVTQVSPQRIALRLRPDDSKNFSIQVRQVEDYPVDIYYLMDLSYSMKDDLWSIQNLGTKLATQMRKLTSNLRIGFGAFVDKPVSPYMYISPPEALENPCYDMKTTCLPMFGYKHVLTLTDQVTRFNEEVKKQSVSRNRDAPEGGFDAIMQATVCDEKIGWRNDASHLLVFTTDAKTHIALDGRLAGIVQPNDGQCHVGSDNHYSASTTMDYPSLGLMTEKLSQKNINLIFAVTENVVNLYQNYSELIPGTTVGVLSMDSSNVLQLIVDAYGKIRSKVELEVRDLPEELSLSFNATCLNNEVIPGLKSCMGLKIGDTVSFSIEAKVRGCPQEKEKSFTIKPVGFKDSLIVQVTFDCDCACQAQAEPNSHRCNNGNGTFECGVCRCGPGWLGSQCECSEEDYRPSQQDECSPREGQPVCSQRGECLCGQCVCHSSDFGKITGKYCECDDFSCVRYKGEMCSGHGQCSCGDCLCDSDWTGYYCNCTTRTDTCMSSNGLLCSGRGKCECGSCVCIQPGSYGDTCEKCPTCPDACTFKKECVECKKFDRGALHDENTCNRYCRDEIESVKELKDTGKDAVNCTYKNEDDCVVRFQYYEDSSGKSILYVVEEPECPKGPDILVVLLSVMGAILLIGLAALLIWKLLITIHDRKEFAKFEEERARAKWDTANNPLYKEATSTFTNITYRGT
assay remarks: ELISA titration of Fab on immobilized αvβ3
measurement kind: fold enhanced binding over parent LM609 grafted antibody

{"binder": "LM609 grafted antibody variant A102 (Fab, V domains shown, Fab) VH: QVQLVESGGGVVQPGRSLRLSCAASGFTFSSYDMSWVRQAPGKGLEWVAKVSSGGGSTYYLDTVQGRFTISRDNSKNTLYLQMNSLRAEDTAVYYCARHNYGSFAAWGQGTTVTVSS VL: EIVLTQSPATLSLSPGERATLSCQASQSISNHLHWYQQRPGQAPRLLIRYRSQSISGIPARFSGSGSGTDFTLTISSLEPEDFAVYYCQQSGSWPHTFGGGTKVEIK", "result": "> 3 fold"}

Turning now to a further binder:
The recorded fold enhanced binding over parent LM609 grafted antibody for entry LM609 grafted antibody variant Q96 (Fab, V domains shown, Fab) VH: QVQLVESGGGVVQPGRSLRLSCAASGFTFSSYDMSWVRQAPGKGLEWVAKVSSGGGSTYYLDTVQGRFTISRDNSKNTLYLQMNSLRAEDTAVYYCARHNYGSFAYWGQGTTVTVSS VL: EIVLTQSPATLSLSPGERATLSCQASQSISNHLHWYQQRPGQAPRLLIRYRSQSISGIPARFSGSGSGTDFTLTISSLEPEDFAVYYCQQSGSWPQTFGGGTKVEIK equals > 3 fold
